Data origin: patent US20230348588A1

# target-or-system: T1, extracellular domain (ECD) of recombinant human Sortilin with a C-terminal HIS tag (ECD-huSortilin-HIS) (human, UniProt Q99523 78-755)
# T1 construct: Bought (R&D Systems); also called human sortilin-ECD
# T1 sequence: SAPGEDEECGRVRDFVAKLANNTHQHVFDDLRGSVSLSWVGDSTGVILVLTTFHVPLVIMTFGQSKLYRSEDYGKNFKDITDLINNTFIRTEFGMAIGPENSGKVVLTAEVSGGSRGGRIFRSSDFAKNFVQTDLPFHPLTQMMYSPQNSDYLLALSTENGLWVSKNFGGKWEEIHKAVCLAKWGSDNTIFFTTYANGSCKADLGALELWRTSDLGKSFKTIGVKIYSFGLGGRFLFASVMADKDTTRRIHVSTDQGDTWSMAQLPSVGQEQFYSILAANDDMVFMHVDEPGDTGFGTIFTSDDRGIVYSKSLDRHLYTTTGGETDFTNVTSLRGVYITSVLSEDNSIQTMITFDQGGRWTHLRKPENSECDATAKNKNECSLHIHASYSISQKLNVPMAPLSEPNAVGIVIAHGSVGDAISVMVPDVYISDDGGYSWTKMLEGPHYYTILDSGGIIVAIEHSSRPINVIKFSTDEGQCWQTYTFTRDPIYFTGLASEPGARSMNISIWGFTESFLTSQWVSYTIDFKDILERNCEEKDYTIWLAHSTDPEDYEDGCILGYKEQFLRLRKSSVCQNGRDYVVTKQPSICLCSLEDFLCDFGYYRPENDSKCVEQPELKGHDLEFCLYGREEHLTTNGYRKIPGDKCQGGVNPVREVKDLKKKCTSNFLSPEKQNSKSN
# protocol-details: SPR (Biacore T200), mAb captured on anti-mouse chip, sortilin as analyte, global 1:1 fit
measure: kon (M⁻¹ s⁻¹)

binder | units | measured-number
mouse monoclonal antibody 2F18 (antibody, mouse IgG1, V domains shown) VH: EVQLVESGGDLVKPGGSLKLSCAASGFTFNIYGMSWVRQTPDKRLEWVATISTGGIYTYYPDSVKGRFTISRDNAKNTLYLQMSSLKSEDTAMYYCARHPVGALDYWGQGTSVTVSS VL: DIQVTQSPASLSVSVGETVTITCRASENIYSNLAWYQQKQGKSPHLLVYTATTLADGVPSRFSGSGSGTQYSLKINSLQSEDFGSYYCQHFWGTPPWTFGGGTKLEIK | M⁻¹ s⁻¹ | 57600
mouse monoclonal antibody 2C14 (antibody, mouse IgG1, V domains shown) VH: EVQLVESGGDLVKPGGSLKLSCAASGFTFNTHGMSWVRQTPDKSLEWVATISTGGFYTSYPDSVKGRFTISRDNAKNTLFLQMSSLKSEDTAMYYCAKSSSHWYFDVWGTGTTVTVSS VL: DILMTQSPSSMSVSLGDTVSITCHASQGISSNIGWLQQKPGKSFKGLIYHGTNLEDGVPSRFSGSGSGADYSLTISSLEYEDFADYYCVQYAHFPYTFGGGTKLEIK | M⁻¹ s⁻¹ | 208000
mouse monoclonal antibody 11M14 (antibody, V domains shown, also called murine 11M14; m11M14) VH: EVQLVESGGDLVKPGGSLKLSCAASGFTFNIYGMSWVRQTPDKRLEWVATISSGGIYTYYPDILKGRFTISRDNAKNTLYLQMSSLKSEDTAMYYCARHPGGAMDYWGQGTSVTVSS VL: DIQMTQSPASLSVSVGETVTITCRVSENIYSNLAWYQQKQGKSPHLLVYAATNLADGVPSRFSGSGSGTQYSLKINSLQSEDFGSYYCQHFWGTPPWTFGGGTKLEIK | M⁻¹ s⁻¹ | 91100
